- experiment description: ATG_PPRE_CIS: Attagene CIS-FACTORIAL HepG2 Assay for human Peroxisome Proliferator-activated Response Element (PPRE) (AID 2282958)
- condition summary: HepG2 PPRE cis-element reporter, Attagene transcription factor profiling; actives raise or lower the signal
The source made the active and inactive calls. The calls were made as follows: active = hit-call score of the fitted dose curve at least 0.9, where 1 is the maximum; inactive = score below 0.9.
// allowed return values: active, inactive

I'd appreciate the recorded outcome for `C=C1CC[C@H]2O[C@]2(C)CC[C@@H]2[C@@H]1CC2(C)C` from this test. inactive

I'd appreciate the recorded outcome for `CCC(=O)OC/C=C(\C)CCC=C(C)C` from this test. inactive

I'd appreciate the recorded outcome for `O=C(O)c1cc2ccccc2cc1O` from this test. active

I'd appreciate the recorded outcome for `NC(=O)c1c(Cl)cccc1Cl` from this test. inactive

I'd appreciate the recorded outcome for `CCCCCCCCSCc1cc(C)c(O)c(CSCCCCCCCC)c1` from this test. inactive

I'd appreciate the recorded outcome for CC(=O)C1C(=O)C=C(C)OC1=O (stereo unspecified) from this test. inactive

I'd appreciate the recorded outcome for `CCNC(=S)NCC` from this test. inactive

I'd appreciate the recorded outcome for `CC(=O)OC(C)(C)C` from this test. inactive

I'd appreciate the recorded outcome for `C=C/C(C)=C/C/C=C(\C)CCC=C(C)C` from this test. inactive

I'd appreciate the recorded outcome for `CCCCCCCC(=O)N(C)C` from this test. inactive

I'd appreciate the recorded outcome for `CCCc1ccc(N)cc1` from this test. inactive
